Tested on: Leishmania donovani
experimentNotes: Antileishmanial activity against Leishmania donovani promastigotes
Type: functional, organism-based
details: read-out: IC50
experimentalEndpoint: IC50 (µM)

CC(C)CC(=O)c1c(O)c(C=O)c(O)c2c1O[C@@]1(CO)[C@@H](C2)C[C@H]2C[C@@H]1C2(C)C : 7.45
CC1(C)[C@H]2[C@@H]1CC[C@@H]1Cc3c(O)c(C=O)c(O)c(C=O)c3O[C@@]12C : 5.17
CC1(C)[C@H]2CC[C@@]3(CCc4c(O)c(C=O)c(O)c(C=O)c4O3)[C@@H]1C2 : 6.36

###

Consider the following compounds and their measured IC50 readings.
Tested on: Leishmania donovani
experimentNotes: Antileishmanial activity against Leishmania donovani promastigotes
Assay type: functional, organism-based
details: read-out: IC50
experimentalEndpoint: IC50

CC(C)CC(=O)c1c(O)c2c(c(C(=O)CC(C)C)c1O)O[C@]1(CC2)[C@@H]2CC[C@@H](C2)C1(C)C : > 40 µg/mL
CC(C)CC(=O)c1c(O)c2c(c(C(=O)CC(C)C)c1O)O[C@@]1(CCO)[C@@H](C2)C[C@H]2C[C@@H]1C2(C)C : > 40 µg/mL
CC(C)CC(=O)c1c(O)c2c(c(C(=O)CC(C)C)c1O)O[C@]1(C)C[C@@H]3[C@H](C[C@@H]1C2)C3(C)C : > 40 µg/mL
CC(C)CC(=O)c1c(O)c2c(c(C(=O)CC(C)C)c1O)O[C@@]1(C)[C@@H](C2)C[C@H]2C[C@@H]1C2(C)C : > 40 µg/mL
CC(C)CC(=O)c1c(O)c2c(c(C(=O)CC(C)C)c1O)O[C@@]1(CO)[C@@H](C2)C[C@H]2C[C@@H]1C2(C)C : 6.93 µM
CC1(C)[C@H]2CC[C@H](C2)[C@]12CCc1c(O)c(C=O)c(O)c(C=O)c1O2 : 4.07 µM
CC(=O)c1c(O)c(C=O)c(O)c2c1O[C@@]1(CC2)CC[C@H]2C[C@@H]1C2(C)C : 4.65 µM
CC(C)CC(=O)c1c(O)c2c(c(C(=O)CC(C)C)c1O)O[C@@]1(CC2)CC[C@H]2C[C@@H]1C2(C)C : > 40 µg/mL
CC(C)CC(=O)c1c(O)c(C=O)c(O)c2c1O[C@]1(CC2)[C@@H]2CC[C@@H](C2)C1(C)C : 4.07 µM
CC1(C)[C@H]2C[C@@H]3Cc4c(O)c(C=O)c(O)c(C=O)c4O[C@]3(CO)[C@@H]1C2 : > 40 µg/mL
